experiment: Spectroscopic properties of the BDM library (absorbance and emission maxima); format: physicochemical
METRIC: λmax (EM)
For clarity, give the value followed by its unit.

Study these solved cases before continuing.
CC1=CC(/C=C/c2ccc(I)cc2)=[N+]2C1=C(CCN)c1cccn1[B-]2(F)F; 572 nm
CC1=CC(/C=C/c2cccc(N3CCCCC3)c2[N+](=O)[O-])=[N+]2C1=C(CCN)c1cccn1[B-]2(F)F; 682 nm
COc1ccc2c(OC)ccc(/C=C/C3=[N+]4C(=C(CCN)c5cccn5[B-]4(F)F)C(C)=C3)c2c1; 642 nm
CC1=CC(/C=C/c2cc(C)c(C)cc2C)=[N+]2C1=C(CCN)c1cccn1[B-]2(F)F; 577 nm
COc1cc(/C=C/C2=[N+]3C(=C(CCN)c4cccn4[B-]3(F)F)C(C)=C2)cc(OC)c1; 567 nm
CC1=CC(/C=C/c2ccc(Oc3ccc(C)cc3)cc2)=[N+]2C1=C(CCN)c1cccn1[B-]2(F)F; 579 nm
CCOc1cccc(/C=C/C2=[N+]3C(=C(CCN)c4cccn4[B-]3(F)F)C(C)=C2)c1; 570 nm

From here, focus on the item given below.
Query: Query (molecule): `Cc1cc(/C=C/c2ccco2)n2c1C(CCN)=C1C=CC=[N+]1[B-]2(F)F` ; field requested: λmax (EM)
Result: 584 nm

====

assay: Quantum yield measurements; format: physicochemical; details: referred to Rhodamine B in EtOH, excitation 510 nm, emission integrated 540-800 nm
Tick 1 if φ (quantum yield) is 0.2 or greater. Tick -1 if φ (quantum yield) is less than 0.2.

Cc1cc(/C=C/c2ccccc2-c2ccccc2)n2c1C(CCN)=C1C=CC=[N+]1[B-]2(F)F [BDM-40]; 1
COc1ccc(/C=C/C2=[N+]3C(=C(CCN)c4cccn4[B-]3(F)F)C(C)=C2)cc1F [BDM-314]; -1
Cc1cc(/C=C/c2ccc(N(C)C)cc2)n2c1C(CCN)=C1C=CC=[N+]1[B-]2(F)F [BDM-2]; -1
CC1=CC(/C=C/c2ccc3ccccc3c2)=[N+]2C1=C(CCN)c1cccn1[B-]2(F)F [BDM-137]; 1
CC1=CC(/C=C/c2ccccc2OC(F)F)=[N+]2C1=C(CCN)c1cccn1[B-]2(F)F [BDM-240]; 1
COc1ccc2ccccc2c1/C=C/C1=[N+]2C(=C(CCN)c3cccn3[B-]2(F)F)C(C)=C1 [BDM-61]; 1
CC1=CC(/C=C/c2ccc(OCc3ccc(F)cc3)cc2)=[N+]2C1=C(CCN)c1cccn1[B-]2(F)F [BDM-378]; 1

Now let's try a different one.
Query: Quick check: does COc1ccc(Br)cc1/C=C/c1cc(C)c2n1[B-](F)(F)[N+]1=CC=CC1=C2CCN [BDM-54] have φ (quantum yield) greater than or equal to 0.2?
Result: 1

====

Target: human IgG
Test: Surface plasmon resonance on immobilized immunoglobulin chip
Assay type: binding
Settings: 25° C., read-out: KD (SPR, steady-state model)
Description: The following experiments were aimed at determining the dissociation constant of the interaction between Ig Orange and human IgG. […] Human IgG (5.0 mg, 0.033 μmol) and biotin-OSu (0.11 mg, 0.33 μmol) were dissolved in 0.1 M NaHCO3 (pH 8.5) and shaken for 1 h at 25° C. […] The fluorescence response of Ig Orange to IgG and biotinylated IgG was compared (FIG. 5). The concentration of biotinylated IgG before fluorescence and SPR experiments was determined by Bradford assay. […]
METRIC: Kd
Note: state the figure and append the unit.

Query: // lookup Kd for `CC1=CC(/C=C/c2ccc(/C=C/c3ccccc3)cc2)=[N+]2C1=C(CCN)c1cccn1[B-]2(F)F`
Result: 71.7 µM

====

test: Spectroscopic properties of the BDM library (absorbance and emission maxima); format: physicochemical
METRIC: λmax (EM) (nm)
Form entry: value (nm) — number only.

Answered examples (5):
CCCCN(CCCC)c1ccc(/C=C/C2=[N+]3C(=C(CCN)c4cccn4[B-]3(F)F)C(C)=C2)cc1 [BDM-17]; 695
COc1ccc(/C=C/C2=[N+]3C(=C(CCN)c4cccn4[B-]3(F)F)C(C)=C2)c(O)c1 [BDM-192]; 605
CC1=CC(/C=C/c2ccc(C)c(Cl)c2)=[N+]2C1=C(CCN)c1cccn1[B-]2(F)F [BDM-289]; 570
COc1ccc(/C=C/C2=[N+]3C(=C(CCN)c4cccn4[B-]3(F)F)C(C)=C2)cc1F [BDM-314]; 570
COc1ccc2ccccc2c1/C=C/C1=[N+]2C(=C(CCN)c3cccn3[B-]2(F)F)C(C)=C1 [BDM-61]; 610

Query: Entry under review: COc1cc(Cl)cc(/C=C/C2=[N+]3C(=C(CCN)c4cccn4[B-]3(F)F)C(C)=C2)c1OC [BDM-282] . Reported λmax (EM)?
Result: 565

Query: Lookup CCOc1cc(/C=C/C2=[N+]3C(=C(CCN)c4cccn4[B-]3(F)F)C(C)=C2)ccc1O [BDM-397]
Result: 614

Query: Same lookup for CC1=CC(/C=C/c2ccc(Cl)c(F)c2)=[N+]2C1=C(CCN)c1cccn1[B-]2(F)F [BDM-437] , please.
Result: 566

====

test: Spectroscopic properties of the BDM library (absorbance and emission maxima); type: physicochemical
METRIC: λmax (ABS) (nm)
Answer with a number only, understood to be in nm.

These recorded examples may help you get a feel for the data.
COc1ccc(/C=C/C2=[N+]3C(=C(CCN)c4cccn4[B-]3(F)F)C(C)=C2)cc1C [BDM-335]; 565
CCCOc1ccc(/C=C/C2=[N+]3C(=C(CCN)c4cccn4[B-]3(F)F)C(C)=C2)cc1 [BDM-140]; 564
COC(=O)c1cc(OC)cc(OC)c1/C=C/C1=[N+]2C(=C(CCN)c3cccn3[B-]2(F)F)C(C)=C1 [BDM-401]; 565

Could you now consider this next molecule?
Query: Query (molecule): CC1=CC(/C=C/c2ccc(Oc3ccc(C)cc3)cc2)=[N+]2C1=C(CCN)c1cccn1[B-]2(F)F [BDM-300] ; field requested: λmax (ABS)
Result: 562

====

assay: Spectroscopic properties of the BDM library (absorbance and emission maxima); format: physicochemical
hey, just use class 1 if measured λmax (EM) is less than 600 nm, otherwise class 0

CC1=CC(/C=C/c2ccc(F)c(Oc3ccccc3)c2)=[N+]2C1=C(CCN)c1cccn1[B-]2(F)F; class 1

Query: Is 600 nm strictly greater than the molecule's reported λmax (EM)? molecule: `Cc1cc(/C=C/c2c3ccccc3cc3ccccc23)n2c1C(CCN)=C1C=CC=[N+]1[B-]2(F)F`
Result: class 0

Query: Moving on to the next molecule: `Cc1cc(/C=C/c2ccc(N(C)CCC#N)cc2)n2c1C(CCN)=C1C=CC=[N+]1[B-]2(F)F`
Result: class 0

Query: And the next one, `Cc1cc(/C=C/c2ccc(-c3ccccc3)cc2)n2c1C(CCN)=C1C=CC=[N+]1[B-]2(F)F` ?
Result: class 1

====

experiment: Quantum yield measurements; assay type: physicochemical; details: referred to Rhodamine B in EtOH, excitation 510 nm, emission integrated 540-800 nm
METRIC: φ (quantum yield)

Solved cases (3 shown):
CC1=CC(/C=C/c2ccccc2OCc2ccccc2)=[N+]2C1=C(CCN)c1cccn1[B-]2(F)F [BDM-218]; 0.37
CC1=CC(/C=C/c2ccccc2C)=[N+]2C1=C(CCN)c1cccn1[B-]2(F)F [BDM-143]; 0.42
COc1ccc(F)c(/C=C/C2=[N+]3C(=C(CCN)c4cccn4[B-]3(F)F)C(C)=C2)c1 [BDM-245]; 0.32

Turning now to a further compound:
Query: Param item = CCOc1cccc(/C=C/C2=[N+]3C(=C(CCN)c4cccn4[B-]3(F)F)C(C)=C2)c1 [BDM-323] ; retrieve measured φ (quantum yield).
Result: 0.44

====

assay: Spectroscopic properties of the BDM library (absorbance and emission maxima); type: physicochemical
Items are presented alongside their recorded λmax (EM).
Lab book: enter the figure in nm, no units written.

CCc1ccc(/C=C/C2=[N+]3C(=C(CCN)c4cccn4[B-]3(F)F)C(C)=C2)cc1[N+](=O)[O-] [BDM-252]; 569
COc1cc(F)c(/C=C/C2=[N+]3C(=C(CCN)c4cccn4[B-]3(F)F)C(C)=C2)cc1OC [BDM-305]; 587
Cc1cc(/C=C/c2cc(C)c3n2[B-](F)(F)[N+]2=CC=CC2=C3CCN)cc(C)c1OCc1ccccc1 [BDM-16]; 574
COc1ccc(/C=C/c2cc(C)c3n2[B-](F)(F)[N+]2=CC=CC2=C3CCN)cc1OCc1ccccc1 [BDM-7]; 591
CC1=CC(/C=C/c2ccc(Br)cc2)=[N+]2C1=C(CCN)c1cccn1[B-]2(F)F [BDM-409]; 570

Query: // query λmax (EM) value for entry COc1ccc(/C=C/C2=[N+]3C(=C(CCN)c4cccn4[B-]3(F)F)C(C)=C2)c(OC)c1C [BDM-347]
Result: 591

Query: Now try CCOc1ccc(/C=C/c2cc(C)c3n2[B-](F)(F)[N+]2=CC=CC2=C3CCN)cc1OCC [BDM-53] .
Result: 600

Query: Note, next up: CC1=CC(/C=C/c2ccc(C)c(F)c2)=[N+]2C1=C(CCN)c1cccn1[B-]2(F)F [BDM-249]
Result: 568

Query: Quick one: CCN(CC)c1ccc(/C=C/C2=[N+]3C(=C(CCN)c4cccn4[B-]3(F)F)C(C)=C2)cc1 [BDM-107]
Result: 681

Query: Same for CSc1ccccc1/C=C/C1=[N+]2C(=C(CCN)c3cccn3[B-]2(F)F)C(C)=C1 [BDM-333]
Result: 575

Query: Now give it for COc1ccc(F)c(/C=C/C2=[N+]3C(=C(CCN)c4cccn4[B-]3(F)F)C(C)=C2)c1 [BDM-245] too.
Result: 563

Query: Same lookup for CSc1ccc(/C=C/c2cc(C)c3n2[B-](F)(F)[N+]2=CC=CC2=C3CCN)cc1 [BDM-18] , please.
Result: 588

Query: Also, CC1=CC(/C=C/c2ccccc2C)=[N+]2C1=C(CCN)c1cccn1[B-]2(F)F [BDM-143] please.
Result: 566

Query: And what about the compound CC1=CC(/C=C/c2ccc(-c3ccccc3)c(F)c2)=[N+]2C1=C(CCN)c1cccn1[B-]2(F)F [BDM-425] ?
Result: 576

Query: Similarly, Cc1cc(/C=C/c2ccc(C(C)C)cc2)n2c1C(CCN)=C1C=CC=[N+]1[B-]2(F)F [BDM-19] ?
Result: 569

Query: How about this compound: COc1cc(OC)c(/C=C/C2=[N+]3C(=C(CCN)c4cccn4[B-]3(F)F)C(C)=C2)c(OC)c1 [BDM-82]
Result: 621

Reference source for all entries: patent US9267949B2
